# assayConditions: 298.15 K; 101.33 kPa; Liquid
measuredParameter: mass density (kg/m3)

CCO [ethanol]; 785
CCOC(=O)c1ccccc1 [ethyl benzoate]; 1041.42
CCCCCCCC(=O)OCC [ethyl octanoate]; 862.15
CC(=O)OCCC(C)C [3-methylbutyl ethanoate]; 867.91
CCCC(=O)OCCC(C)C [3-methylbutyl butanoate]; 858.69
CCCCCC(=O)OCC [ethyl hexanoate]; 866.29
CCOC(=O)Cc1ccccc1 [ethyl phenylacetate]; 1026.96

* * *

# assaySummary: xn = mol fraction of the nth substance listed
# assayConditions: 318.15 K, x1 = 0.4
measuredParameter: surface tension liquid-gas (mN/m)

CCOC(=O)Cc1ccccc1 [ethyl phenylacetate] + CCO; 25.4
CC(=O)OCCC(C)C [3-methylbutyl ethanoate] + CCO; 21.2
CCCCCC(=O)OCC [ethyl hexanoate] + CCO; 22.3
CCCC(=O)OCCC(C)C [3-methylbutyl butanoate] + CCO; 21.9
CCOC(=O)c1ccccc1 [ethyl benzoate] + CCO; 25.8
CCCCCCCC(=O)OCC [ethyl octanoate] + CCO; 23.2

* * *

# assaySummary: xn = mol fraction of the nth substance listed
# assayConditions: 308.15 K, x1 = 0.5
measuredParameter: surface tension liquid-gas (mN/m)

CCCC(=O)OCCC(C)C [3-methylbutyl butanoate] + CCO; 23
CCCCCCCC(=O)OCC [ethyl octanoate] + CCO; 24.4
CCOC(=O)Cc1ccccc1 [ethyl phenylacetate] + CCO; 27.4
CC(=O)OCCC(C)C [3-methylbutyl ethanoate] + CCO; 22.4
CCOC(=O)c1ccccc1 [ethyl benzoate] + CCO; 27.7
CCCCCC(=O)OCC [ethyl hexanoate] + CCO; 23.5

* * *

# assaySummary: refractive index (Na D-line) (dimensionless); xn = mol fraction of the nth substance listed
# assayConditions: 298.15 K; 100.5 kPa; Liquid; Standard Abbe refractometry; x1 = 0.35
measuredParameter: refractive index

CCCCCC(=O)OCC [ethyl hexanoate] + CCO; 1.38681
CCOC(=O)Cc1ccccc1 [ethyl phenylacetate] + CCO; 1.44111
CCOC(=O)c1ccccc1 [ethyl benzoate] + CCO; 1.44303
CCCC(=O)OCCC(C)C [3-methylbutyl butanoate] + CCO; 1.38977
CCCCCCCC(=O)OCC [ethyl octanoate] + CCO; 1.39553
CC(=O)OCCC(C)C [3-methylbutyl ethanoate] + CCO; 1.38172

* * *

# assaySummary: refractive index (Na D-line) (dimensionless); xn = mol fraction of the nth substance listed
# assayConditions: 308.15 K; 100.5 kPa; Liquid; Standard Abbe refractometry; x1 = 0.35
measuredParameter: refractive index

CC(=O)OCCC(C)C [3-methylbutyl ethanoate] + CCO; 1.37714
CCCCCC(=O)OCC [ethyl hexanoate] + CCO; 1.38236
CCCCCCCC(=O)OCC [ethyl octanoate] + CCO; 1.39125
CCOC(=O)c1ccccc1 [ethyl benzoate] + CCO; 1.4384
CCOC(=O)Cc1ccccc1 [ethyl phenylacetate] + CCO; 1.43661
CCCC(=O)OCCC(C)C [3-methylbutyl butanoate] + CCO; 1.38535

* * *

# assaySummary: xn = mol fraction of the nth substance listed
# assayConditions: 298.15 K, x1 = 0.75
measuredParameter: surface tension liquid-gas (mN/m)

CCOC(=O)c1ccccc1 [ethyl benzoate] + CCO; 31.3
CCCCCCCC(=O)OCC [ethyl octanoate] + CCO; 25.9
CCOC(=O)Cc1ccccc1 [ethyl phenylacetate] + CCO; 31.6
CC(=O)OCCC(C)C [3-methylbutyl ethanoate] + CCO; 23.8
CCCC(=O)OCCC(C)C [3-methylbutyl butanoate] + CCO; 24.2
CCCCCC(=O)OCC [ethyl hexanoate] + CCO; 25
